Source: patent US8748480B2

Listing of recorded % of Wild-Type Signal, Trp332 by entry.
# Test system: Gβ1γ2 Trp332Ala (Rattus norvegicus, UniProt P54311, W332A)
# Construct: made in house; host or cells: Sf9 insect cells (baculovirus)
# Sequence (P54311 whole entry W332A): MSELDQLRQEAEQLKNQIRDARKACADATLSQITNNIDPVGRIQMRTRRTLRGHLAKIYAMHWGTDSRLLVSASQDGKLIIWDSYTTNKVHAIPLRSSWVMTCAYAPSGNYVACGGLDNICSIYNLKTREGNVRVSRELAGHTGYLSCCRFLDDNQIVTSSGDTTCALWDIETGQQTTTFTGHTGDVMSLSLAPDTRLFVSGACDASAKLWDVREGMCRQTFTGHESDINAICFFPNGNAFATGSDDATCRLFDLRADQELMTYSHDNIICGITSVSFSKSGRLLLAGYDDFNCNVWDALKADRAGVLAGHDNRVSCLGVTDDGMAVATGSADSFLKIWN
# Sequence (P63212 2-68 partner limits assumed): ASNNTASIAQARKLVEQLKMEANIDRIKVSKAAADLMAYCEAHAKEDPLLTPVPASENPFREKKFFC
# Assay protocol: Phage ELISA, b-βγ mutant Trp332Ala
# Assay type: binding
# Assay context: alanine-substituted Trp332, C-Terminal Interface; mean ± SD
Report as a plain number; the unit % is understood.

sequence_string="SCEKRYGIEFCT [C4]" val=1.7
sequence_string="WCPPKAMTQLGIKAC [C14]" val=1.6
sequence_string="SCGHGLKVQSTIGACA [3C]" val=−0.3

Any idea what % of Wild-Type Signal, Trp332 was measured for LCSKAYLLLGQTC [2F] ? −1.5

Any idea what % of Wild-Type Signal, Trp332 was measured for SCKRTKAQILLAPCT [C1] ? −0.3

Any idea what % of Wild-Type Signal, Trp332 was measured for SIGKALFILGYPDYD [3.14] ? 7.1

Any idea what % of Wild-Type Signal, Trp332 was measured for SCEKRLGVRSCT [C5] ? 3.2

Any idea what % of Wild-Type Signal, Trp332 was measured for WCPPKLEQWYDGCA [C2] ? 4.7
